Tested on: HCT116 (human, colon)
Assay: MTT cytotoxicity HCT116
Assay type: cell-based
Conditions: HCT-116, 72 h, n = 3
pIC50: −log10 of the molar value.
Parameter pIC50: see the listing below.

| compound | pIC50 |
| --- | --- |
| CC(C)Oc1c(NC(=O)c2ccc(NC(=O)[C@H](CC(N)=O)NC(=O)c3ccc(NC(=O)c4ccc(C#N)cc4)cc3)cc2)ccc(C(=O)Nc2ccc(C(=O)O)cc2)c1O [CN-DM-861] | < 4.70 |
| C=CC1CC1(NC(=O)C12CC(NC(=O)c3ccc(C#N)cc3)(C1)C2)C(=O)Nc1ccc(C(=O)Nc2ccc(C(=O)Nc3ccc(C(=O)O)cc3)c(O)c2OC(C)C)cc1 (stereo not shown) [Cysto-180] | < 4.70 |
| COc1cccc2c1C(=O)c1c(O)c3c(c(O)c1C2=O)C[C@@](O)(C(=O)CO)C[C@@H]3O[C@H]1C[C@H](N)[C@H](O)[C@H](C)O1 [Doxorubicin, doxorubicin, reference compound] | 6.62 |
| CO[C@H](C(N)=O)[C@H](NC(=O)c1ccc(NC(=O)c2ccc(C#N)cc2)cc1)C(=O)Nc1ccc(C(=O)Nc2ccc(C(=O)Nc3ccc(C(=O)O)cc3)c(O)c2OC(C)C)cc1 [CN-861-2] | < 4.70 |
